- Experiment Notes: Tissue distribution study in mice, 20 mg/kg i.p.
- Format: in vivo, C57BL/6 J mice
- Measurement Context: male, C57BL/6J, mouse, liver homogenate, ip, 20 mg/kg, Liver, 4 h, IP 20 mg/kg, read-out: Plasma or Tissue Homogenate Conc (individual animals)
Attribute Measured: concentration at 4 h (ng/mL)
Quick reminder: number only, in ng/mL, skip the unit.

[in] Given the compound c1ccc(-c2nnc(-c3ccccn3)nc2NC2CCCCC2)cc1 , what is its reported concentration at 4 h?
[out] 539

* * *

- Experiment Notes: Tissue distribution study in mice, 20 mg/kg i.p.
- Assay type: in vivo, C57BL/6 J mice
- Measurement Context: male, C57BL/6J, mouse, muscle homogenate, ip, 20 mg/kg, Muscle, 8 h, IP 20 mg/kg, read-out: Mean Plasma or Tissue Homogenate Conc
- Protocol: Male C57BL/6 J (Jackson Laboratories) wild type mice (age: 40–60 days) weighing 25–30 g, were used for the tissue distribution study. Mice were randomly assigned in two groups: blank (n = 1) and treatment. The treatment group received 20 mg/kg compound 424 intraperitoneally (n = 15; 3 animals per time point i.e., 0.5, 1, 2, 4, and 8 h). Molport 002–877–424 was formulated in a vehicle consisting of 20 % DMSO, 50 % PEG300, and 30 % sterile water. […]
Attribute Measured: concentration at 8 h
Remember to follow the number with its unit.

[in] Fill blank: measured concentration at 8 h of the compound c1ccc(-c2nnc(-c3ccccn3)nc2NC2CCCCC2)cc1 [MolPort-002-877-424, C1CCC(CC1)Nc2nc(nnc2c3ccccc3)c4ccccn4] is ____.
[out] 33.1 ng/mL

* * *

- Experiment Notes: Tissue distribution study in mice, 20 mg/kg i.p.
- Assay type: in vivo, C57BL/6 J mice
- Measurement Context: male, C57BL/6 J, mouse, brain, ip, 20 mg/kg, Brain, 4 h, IP 20 mg/kg, read-out: Mean Tissue
Attribute Measured: concentration at 4 h
Kindly write the number and append the unit.

[in] I'd like to know its concentration at 4 h. The molecule in question is c1ccc(-c2nnc(-c3ccccn3)nc2NC2CCCCC2)cc1
[out] 230 ng/g

* * *

- Experiment Notes: Tissue distribution study in mice, 20 mg/kg i.p.
- Type: in vivo, C57BL/6 J mice
- Measurement Context: male, C57BL/6 J, mouse, plasma, ip, 20 mg/kg, Plasma, 8 h, IP 20 mg/kg, read-out: Plasma or Tissue Homogenate Conc (individual animals)
Attribute Measured: concentration at 8 h
Quote the value and follow it with the unit of measurement.

[in] Field request: concentration at 8 h | item: c1ccc(-c2nnc(-c3ccccn3)nc2NC2CCCCC2)cc1
[out] 868 ng/mL

* * *

- Experiment Notes: Tissue distribution study in mice, 20 mg/kg i.p.
- Format: in vivo, C57BL/6 J mice
- Measurement Context: male, C57BL/6 J, mouse, plasma, ip, 20 mg/kg, Plasma, 0.5 h, IP 20 mg/kg, read-out: Plasma or Tissue Homogenate Conc (individual animals)
Attribute Measured: concentration at 0.5 h (ng/mL)
Your answer is read as ng/mL, so omit the unit and give the number.

[in] Name the recorded concentration at 0.5 h for c1ccc(-c2nnc(-c3ccccn3)nc2NC2CCCCC2)cc1 .
[out] 12300

* * *

- Experiment Notes: Tissue distribution study in mice, 20 mg/kg i.p.
- Assay type: in vivo, C57BL/6 J mice
- Measurement Context: male, C57BL/6J, mouse, liver, ip, 20 mg/kg, Liver, 2 h, IP 20 mg/kg, read-out: Mean Tissue
Attribute Measured: concentration at 2 h (ng/g)
API: value field is a number in ng/g; no unit string.

[in] What concentration at 2 h value was documented for this compound, c1ccc(-c2nnc(-c3ccccn3)nc2NC2CCCCC2)cc1 ?
[out] 6270

* * *

- Experiment Notes: Tissue distribution study in mice, 20 mg/kg i.p.
- Format: in vivo, C57BL/6 J mice
- Measurement Context: male, C57BL/6 J, mouse, muscle homogenate, ip, 20 mg/kg, Muscle, 0.5 h, IP 20 mg/kg, read-out: Plasma or Tissue Homogenate Conc (individual animals)
Attribute Measured: concentration at 0.5 h (ng/mL)
Please respond with the number in ng/mL and leave the unit unwritten.

[in] # concentration at 0.5 h lookup, item c1ccc(-c2nnc(-c3ccccn3)nc2NC2CCCCC2)cc1
[out] 443

* * *

- Experiment Notes: Tissue distribution study in mice, 20 mg/kg i.p.
- Assay type: in vivo, C57BL/6 J mice
- Measurement Context: male, C57BL/6J, mouse, muscle homogenate, ip, 20 mg/kg, Muscle, 4 h, IP 20 mg/kg, read-out: Plasma or Tissue Homogenate Conc (individual animals)
Attribute Measured: concentration at 4 h
Your reply should be a number followed by the unit it is expressed in.

[in] Could you tell me which concentration at 4 h is on file for c1ccc(-c2nnc(-c3ccccn3)nc2NC2CCCCC2)cc1 ?
[out] 63.6 ng/mL

* * *

- Experiment Notes: Tissue distribution study in mice, 20 mg/kg i.p.
- Format: in vivo, C57BL/6 J mice
- Measurement Context: male, C57BL/6 J, brain, ip; mouse, 20 mg/kg i.p.; read-out: mean tissue to plasma ratios (brain)
Attribute Measured: Kp

[in] Tell me the measured Kp of c1ccc(-c2nnc(-c3ccccn3)nc2NC2CCCCC2)cc1 , please.
[out] ≤ 0.134

* * *

- Experiment Notes: Tissue distribution study in mice, 20 mg/kg i.p.
- Type: in vivo, C57BL/6 J mice
- Measurement Context: male, C57BL/6 J, mouse, kidney homogenate, ip, 20 mg/kg, Kidney, 1 h, IP 20 mg/kg, read-out: Plasma or Tissue Homogenate Conc (individual animals)
- Method: Male C57BL/6 J (Jackson Laboratories) wild type mice (age: 40–60 days) weighing 25–30 g, were used for the tissue distribution study. Mice were randomly assigned in two groups: blank (n = 1) and treatment. The treatment group received 20 mg/kg compound 424 intraperitoneally (n = 15; 3 animals per time point i.e., 0.5, 1, 2, 4, and 8 h). Molport 002–877–424 was formulated in a vehicle consisting of 20 % DMSO, 50 % PEG300, and 30 % sterile water. […]
Attribute Measured: concentration at 1 h (ng/mL)
Number only, in ng/mL; omit the unit.

[in] Item under review: c1ccc(-c2nnc(-c3ccccn3)nc2NC2CCCCC2)cc1 [MolPort-002-877-424, C1CCC(CC1)Nc2nc(nnc2c3ccccc3)c4ccccn4] . Reported concentration at 1 h?
[out] 1580

* * *

- Experiment Notes: Tissue distribution study in mice, 20 mg/kg i.p.
- Assay type: in vivo, C57BL/6 J mice
- Measurement Context: male, C57BL/6 J, mouse, brain homogenate, ip, 20 mg/kg, Brain, 0.5 h, IP 20 mg/kg, read-out: Mean Plasma or Tissue Homogenate Conc
Attribute Measured: concentration at 0.5 h (ng/mL)
Number only, in ng/mL; omit the unit.

[in] Which concentration at 0.5 h is reported for this compound? c1ccc(-c2nnc(-c3ccccn3)nc2NC2CCCCC2)cc1
[out] 350

* * *

- Experiment Notes: Tissue distribution study in mice, 20 mg/kg i.p.
- Format: in vivo, C57BL/6 J mice
- Measurement Context: male, C57BL/6 J, mouse, brain, ip, 20 mg/kg, Brain, 2 h, IP 20 mg/kg, read-out: Mean Tissue
Attribute Measured: concentration at 2 h (ng/g)
Kindly answer with a numeric value in ng/g, unit omitted.

[in] So what does the record say about concentration at 2 h for c1ccc(-c2nnc(-c3ccccn3)nc2NC2CCCCC2)cc1 ?
[out] 543

* * *

- Experiment Notes: Tissue distribution study in mice, 20 mg/kg i.p.
- Type: in vivo, C57BL/6 J mice
- Measurement Context: male, C57BL/6J, mouse, muscle, ip, 20 mg/kg, Muscle, 2 h, IP 20 mg/kg, read-out: Mean Tissue
Attribute Measured: concentration at 2 h
Just so you know, I need the unit written after the number.

[in] Form field: reported concentration at 2 h of c1ccc(-c2nnc(-c3ccccn3)nc2NC2CCCCC2)cc1
[out] 768 ng/g

* * *

- Experiment Notes: Tissue distribution study in mice, 20 mg/kg i.p.
- Format: in vivo, C57BL/6 J mice
- Measurement Context: male, C57BL/6 J, mouse, plasma, ip, 20 mg/kg, Plasma, 4 h, IP 20 mg/kg, read-out: Mean Plasma or Tissue Homogenate Conc
Attribute Measured: concentration at 4 h (ng/mL)
Give your result in ng/mL as a bare value.

[in] Find the recorded concentration at 4 h belonging to c1ccc(-c2nnc(-c3ccccn3)nc2NC2CCCCC2)cc1 and report it.
[out] 2190

* * *

- Experiment Notes: Tissue distribution study in mice, 20 mg/kg i.p.
- Assay type: in vivo, C57BL/6 J mice
- Measurement Context: male, C57BL/6J, liver/plasma; Liver, 1 h; mouse, IP 20 mg/kg; read-out: Mean Tissue/ Plasma Conc Ratio
Attribute Measured: Kp at 1 h

[in] Field request: Kp at 1 h | item: c1ccc(-c2nnc(-c3ccccn3)nc2NC2CCCCC2)cc1 [MolPort-002-877-424, C1CCC(CC1)Nc2nc(nnc2c3ccccc3)c4ccccn4]
[out] 1.33
